Tested on: Liver
Protocol description: Half life in mouse liver microsomes by LC/MS/MS analysis in presence of NADPH
Type: ADME, Microsome
Under this convention, criterion met denotes t1/2 strictly below 10 min and criterion not met denotes t1/2 at or above 10 min.

smiles_entry=C[C@H](Nc1cccc2ccccc12)C(=O)Nc1ccc2oc(-c3ccncc3)nc2c1 class_name="criterion not met"
smiles_entry=C[C@H](Oc1cccc(Cl)c1Cl)C(=O)Nc1ccc2oc(-c3ccncc3)nc2c1 class_name="criterion met"
smiles_entry=C[C@@H](C(=O)Nc1ccc2oc(-c3ccncc3)nc2c1)c1cccc(Cl)c1Cl class_name="criterion not met"
smiles_entry=C[C@H](Oc1cccc2ccccc12)C(=O)Nc1ccc2oc(-c3ccncc3)nc2c1 class_name="criterion not met"

---

Tested system: Inosine-5'-monophosphate dehydrogenase (Cryptosporidium parvum)
Sequence (Q8T6T2 whole entry): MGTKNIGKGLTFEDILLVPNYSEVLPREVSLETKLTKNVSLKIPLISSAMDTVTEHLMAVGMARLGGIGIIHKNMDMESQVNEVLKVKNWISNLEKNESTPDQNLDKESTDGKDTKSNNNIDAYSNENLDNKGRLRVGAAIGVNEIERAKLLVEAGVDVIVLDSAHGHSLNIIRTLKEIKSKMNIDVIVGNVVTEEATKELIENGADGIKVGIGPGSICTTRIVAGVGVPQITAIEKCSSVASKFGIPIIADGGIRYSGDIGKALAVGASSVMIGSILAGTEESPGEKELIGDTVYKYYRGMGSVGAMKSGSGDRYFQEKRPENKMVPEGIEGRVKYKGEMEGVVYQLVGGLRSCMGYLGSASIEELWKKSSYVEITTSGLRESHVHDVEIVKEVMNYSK
Protocol description: Inhibition of Cryptosporidium parvum N-terminal His6-tagged IMPDH-mediated NADH production expressed in Escherichia coli BL21(DE3) preincubated for 5 mins prior to substrate addition by fluorescence assay
A collection of compounds and their measured IC50
Property name: IC50 (nM)

compound="CC(NC(=O)c1ccc2oc(-c3ccncc3)nc2c1)c1ccccc1 (stereo not given)" property_name=IC50 units=nM lt_gt_eq=> reported_value=5000
compound="CC(Oc1cccc2ccccc12)C(=O)Nc1ccc2oc(-c3ncccn3)nc2c1 (stereo not given)" property_name=IC50 units=nM lt_gt_eq=> reported_value=5000
compound=C[C@@H](Oc1cccc2ccccc12)C(=O)Nc1ccc2oc(-c3ccncc3)nc2c1 property_name=IC50 units=nM lt_gt_eq== reported_value=400
compound=C[C@H](C(=O)Nc1ccc2oc(-c3ccncc3)nc2c1)c1ccccc1 property_name=IC50 units=nM lt_gt_eq=> reported_value=5000
compound=C[C@H](Nc1cccc2ccccc12)C(=O)Nc1ccc2oc(-c3ccncc3)nc2c1 property_name=IC50 units=nM lt_gt_eq== reported_value=14
compound="CC(Oc1cccc2ccccc12)C(=O)Nc1ccc2oc(-c3ccncc3)nc2c1 (stereo not given)" property_name=IC50 units=nM lt_gt_eq== reported_value=9
compound=C[C@H](Oc1cccc2ccccc12)C(=O)Nc1ccc2oc(-c3ccc[nH]3)nc2c1 property_name=IC50 units=nM lt_gt_eq== reported_value=26
compound="CC(Oc1ccc(Cl)cc1Cl)C(=O)Nc1ccc2oc(-c3cccnc3)nc2c1 (stereo not given)" property_name=IC50 units=nM lt_gt_eq== reported_value=150
compound=C[C@H](Oc1cccc([N+](=O)[O-])c1Cl)C(=O)Nc1ccc2oc(-c3ccncc3)nc2c1 property_name=IC50 units=nM lt_gt_eq== reported_value=2.3
compound=O=C(COc1ccc(Cl)cc1Cl)Nc1ccc2oc(-c3ccncc3)nc2c1 property_name=IC50 units=nM lt_gt_eq=> reported_value=5000
compound=C[C@H](Oc1cccc2ccccc12)C(=O)N(C)c1ccc2oc(-c3cncs3)nc2c1 property_name=IC50 units=nM lt_gt_eq=> reported_value=5000
compound="CC(Oc1ccc(Cl)cc1Cl)C(=O)Nc1ccc2oc(-c3ccccc3)nc2c1 (stereo not given)" property_name=IC50 units=nM lt_gt_eq=> reported_value=5000
compound=COc1cccc(O[C@@H](C)C(=O)Nc2ccc3oc(-c4ccncc4)nc3c2)c1OC property_name=IC50 units=nM lt_gt_eq== reported_value=50
compound="COc1ccc(OC(C)C(=O)Nc2ccc3oc(-c4ccncc4)nc3c2)cc1 (stereo not given)" property_name=IC50 units=nM lt_gt_eq== reported_value=28
compound=C[C@H](Oc1cccc(C(F)(F)F)c1Cl)C(=O)Nc1ccc2oc(-c3ccncc3)nc2c1 property_name=IC50 units=nM lt_gt_eq== reported_value=9
compound=C[C@H](Oc1cccc(Cl)c1Cl)C(=O)Nc1ccc2oc(-c3cncs3)nc2c1 property_name=IC50 units=nM lt_gt_eq== reported_value=1.4
compound="CC(C(=O)Nc1ccc2oc(-c3ccncc3)nc2c1)c1ccccc1 (stereo not given)" property_name=IC50 units=nM lt_gt_eq== reported_value=120
compound="CC(Oc1ccccc1)c1cn(-c2ccc3oc(-c4cncs4)nc3c2)nn1 (stereo not given)" property_name=IC50 units=nM lt_gt_eq=> reported_value=5000
compound="CC(Oc1ccc(Cl)c2ccccc12)C(=O)Nc1ccc2oc(-c3cncs3)nc2c1 (stereo not given)" property_name=IC50 units=nM lt_gt_eq== reported_value=28
compound="CC(Nc1cccc(Cl)c1Cl)C(=O)Nc1ccc2oc(-c3ccncc3)nc2c1 (racemic)" property_name=IC50 units=nM lt_gt_eq== reported_value=2
compound="CC(Oc1ccccc1Cl)C(=O)Nc1ccc2oc(-c3ccncc3)nc2c1 (stereo not given)" property_name=IC50 units=nM lt_gt_eq== reported_value=19
compound=CC(C)(Oc1ccc(Cl)cc1)C(=O)Nc1ccc2oc(-c3ccncc3)nc2c1 property_name=IC50 units=nM lt_gt_eq=> reported_value=5000
compound="CC(Oc1ccccc1)C(=O)Nc1ccc2oc(-c3ccncc3)nc2c1 (stereo not given)" property_name=IC50 units=nM lt_gt_eq== reported_value=40
compound="CC(Oc1ccc(Cl)cc1)C(=O)Nc1ccc2oc(-c3ccncc3)nc2c1 (stereo not given)" property_name=IC50 units=nM lt_gt_eq== reported_value=105
compound="CC(Oc1c(Cl)cccc1Cl)C(=O)Nc1ccc2oc(-c3ccncc3)nc2c1 (stereo not given)" property_name=IC50 units=nM lt_gt_eq=> reported_value=5000
